Molecular target: 28 CDKs family protein kinases (Homo sapiens)
Construct: purchased ProQinase GmbH; host or cells: Sf9 insect cells or E. coli
Test: In vitro IC50 profile for CDKs family kinase (33PanQinase Activity Assay, ProQinase)
Type: biochemical
Settings: CDK2/CycA2; read-out: CDK7 selectivity profile in CDKs family, IC50
pIC50: −log10 of the molar value.
measuredAttribute: pIC50

{"molSmiles": "CC(C)c1cnn2c(NCc3ccccc3-c3nccc4cc(NC(=O)/C=C/CN(C)C)ccc34)nc(N3CCC(N)CC3)nc12", "measuredAttribute": "pIC50", "result": "< 5.00"}

###

Molecular target: 28 CDKs family protein kinases (Homo sapiens)
Construct: purchased ProQinase GmbH; host or cells: Sf9 insect cells or E. coli
Assay: In vitro IC50 profile for CDKs family kinase (33PanQinase Activity Assay, ProQinase)
Assay type: biochemical
Details: CDK6/CycD2; read-out: CDK7 selectivity profile in CDKs family, IC50
pIC50: −log10 of the molar value.

{"compound": "CC(C)c1cnn2c(NCc3ccccc3-c3nccc4cc(NC(=O)/C=C/CN(C)C)ccc34)nc(N3CCC(N)CC3)nc12 [Compound 11]", "pIC50": "< 5.00"}

###

Molecular target: 28 CDKs family protein kinases (Homo sapiens, UniProt P11802)
Construct: purchased ProQinase GmbH; host or cells: Sf9 insect cells or E. coli
Sequence (P11802 whole entry): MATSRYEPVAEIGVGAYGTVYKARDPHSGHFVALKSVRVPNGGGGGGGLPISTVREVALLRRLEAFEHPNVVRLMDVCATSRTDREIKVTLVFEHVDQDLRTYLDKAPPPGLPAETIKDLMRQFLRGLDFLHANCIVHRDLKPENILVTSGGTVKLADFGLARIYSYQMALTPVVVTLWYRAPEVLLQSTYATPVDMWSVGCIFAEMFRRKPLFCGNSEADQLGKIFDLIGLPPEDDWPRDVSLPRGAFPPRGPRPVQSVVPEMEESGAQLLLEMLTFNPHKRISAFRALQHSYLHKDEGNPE
Sequence (P24385 whole entry partner): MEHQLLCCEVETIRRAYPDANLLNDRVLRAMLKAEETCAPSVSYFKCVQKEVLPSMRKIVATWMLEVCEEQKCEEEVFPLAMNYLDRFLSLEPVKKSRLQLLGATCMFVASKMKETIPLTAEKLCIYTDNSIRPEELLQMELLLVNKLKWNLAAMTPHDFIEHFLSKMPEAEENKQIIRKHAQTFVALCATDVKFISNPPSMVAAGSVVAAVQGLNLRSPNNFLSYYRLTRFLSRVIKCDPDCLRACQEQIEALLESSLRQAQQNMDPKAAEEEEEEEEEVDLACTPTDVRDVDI
Test: In vitro IC50 profile for CDKs family kinase (33PanQinase Activity Assay, ProQinase)
Format: biochemical
Conditions: CDK4/CycD1; read-out: CDK7 selectivity profile in CDKs family, IC50
pIC50: −log10 of the molar value.

{"compound": "CC(C)c1cnn2c(NCc3ccccc3-c3nccc4cc(NC(=O)/C=C/CN(C)C)ccc34)nc(N3CCC(N)CC3)nc12 [Compound 11]", "pIC50": "< 5.00"}

###

Target: 28 CDKs family protein kinases (Homo sapiens, UniProt Q00536)
Sequence (Q00536 whole entry): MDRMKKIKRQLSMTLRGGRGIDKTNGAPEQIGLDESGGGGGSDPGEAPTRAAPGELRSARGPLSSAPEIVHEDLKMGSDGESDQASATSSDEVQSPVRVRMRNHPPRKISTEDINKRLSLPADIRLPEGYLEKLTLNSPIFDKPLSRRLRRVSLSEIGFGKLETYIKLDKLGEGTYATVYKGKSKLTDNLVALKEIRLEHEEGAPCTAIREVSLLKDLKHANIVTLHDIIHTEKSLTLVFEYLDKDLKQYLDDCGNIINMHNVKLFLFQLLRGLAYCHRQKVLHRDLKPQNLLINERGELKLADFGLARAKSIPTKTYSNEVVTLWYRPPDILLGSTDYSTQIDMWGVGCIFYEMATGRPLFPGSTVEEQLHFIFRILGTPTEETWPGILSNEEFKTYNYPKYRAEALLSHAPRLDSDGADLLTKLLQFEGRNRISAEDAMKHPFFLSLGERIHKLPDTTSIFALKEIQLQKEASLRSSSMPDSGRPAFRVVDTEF
Sequence (Q8ND76 whole entry partner): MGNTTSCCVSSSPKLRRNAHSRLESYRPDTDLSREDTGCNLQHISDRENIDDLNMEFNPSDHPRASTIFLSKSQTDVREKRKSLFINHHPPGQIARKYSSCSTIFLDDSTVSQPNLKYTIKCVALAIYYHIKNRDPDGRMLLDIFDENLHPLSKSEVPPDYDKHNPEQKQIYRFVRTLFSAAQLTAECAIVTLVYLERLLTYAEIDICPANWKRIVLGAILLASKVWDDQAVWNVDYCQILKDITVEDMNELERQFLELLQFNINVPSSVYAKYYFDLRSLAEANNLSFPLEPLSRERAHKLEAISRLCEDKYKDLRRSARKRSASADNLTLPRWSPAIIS
Assay: In vitro IC50 profile for CDKs family kinase (33PanQinase Activity Assay, ProQinase)
Details: CDK16/CycY; read-out: CDK7 selectivity profile in CDKs family, IC50
pIC50: −log10 of the molar value.

{"molecule": "CC(C)c1cnn2c(NCc3ccccc3-c3nccc4cc(NC(=O)/C=C/CN(C)C)ccc34)nc(N3CCC(N)CC3)nc12 [Compound 11]", "pIC50": "< 5.00"}

###

Target: CDK2/Cyclin A (Homo sapiens, UniProt P24941)
Assay: Enzymatic assay for CDK2 (LANCE Ultra kinase assay, FRET based)
Conditions: ATP at Km
pIC50: −log10 of the molar value.
Listing of recorded pIC50 by entry.

{"compound": "C=C(F)C(=O)Nc1ccc2c(-c3ccccc3CNc3nc(NC4CCC(OC)C4)nc4c(C(C)C)cnn34)nccc2c1 (single isomer, unassigned) [Compound 97]", "pIC50": "< 6.00"}
{"compound": "CC(C)c1cnn2c(NCc3cccc(Oc4ccc(Cl)c(NC(=O)/C=C/CN(C)C)c4)c3)nc(N3CCC(N)CC3)nc12", "pIC50": "6.00 to 7.00"}
{"compound": "CC(C)=CC(=O)Nc1ccc2c(-c3ccccc3CNc3nc(N4CCC(N)CC4)nc4c(C(C)C)cnn34)nccc2c1", "pIC50": "< 6.00"}
{"compound": "CC(C)c1cnn2c(NCc3ccccc3-c3nccc4cc(NC(=O)/C=C/CN(C)C)ccc34)nc(N[C@H]3CC[C@H](C)NC3)nc12", "pIC50": "< 6.00"}
{"compound": "CC(C)c1cnn2c(NCc3ccccc3-c3nccc4cc(NC(=O)/C=C/CN5CCCCC5)ccc34)nc(N3CCC(N)CC3)nc12", "pIC50": "< 6.00"}
{"compound": "CC(C)c1cnn2c(NCc3ccccc3-c3nccc4cc(NC(=O)/C=C/CN(C)C)ccc34)nc(-n3ccc(CO)n3)nc12", "pIC50": "< 6.00"}
{"compound": "C=C(C)C(=O)Nc1ccc2c(-c3ccccc3CNc3nc(N4CCC(N)CC4)nc4c(C(C)C)cnn34)nccc2c1", "pIC50": "< 6.00"}
{"compound": "COC1CCC(Nc2nc(NCc3ccccc3-c3nccc4cc(NC(=O)/C=C/CN(C)C)ccc34)n3ncc(C(C)C)c3n2)CC1 (stereo not shown)", "pIC50": "< 6.00"}
{"compound": "C=C(C)C(=O)Nc1ccc2c(-c3ccccc3CNc3nc(NC4CCC(C)(C)NC4)nc4c(C(C)C)cnn34)nccc2c1 (stereo not shown)", "pIC50": "< 6.00"}
{"compound": "CC(C)c1cnn2c(NCc3ccccc3-c3nccc4cc(NC(=O)/C=C/CN(C)C)ccc34)nc(N3CCC4(CCOC4)CC3)nc12", "pIC50": "< 6.00"}
{"compound": "CC(C)c1cnn2c(NCc3ccccc3-c3nccc4cc(NC(=O)/C=C/CN(C)C)ccc34)nc(N3CCc4sccc4C3)nc12", "pIC50": "< 6.00"}
{"compound": "Cc1cc(NCc2ccccc2-c2nccc3cc(NC(=O)/C=C/CN(C)C)ccc23)n2ncc(C(C)C)c2n1", "pIC50": "< 6.00"}
{"compound": "C=C(F)C(=O)N1CCc2c(cccc2-c2ccccc2CNc2nc(OC3CCC(C)(C)NC3)nc3c(C(C)C)cnn23)C1 (stereo not shown)", "pIC50": "< 6.00"}
